biological target: dimeric human IgG-lambda (Southern Biotech, Birmingham AL); assay: BLI (ForteBio), biotinylated ligand on sensor, 1:1 fit
observable: Kd

>  <binder>
affinity ligand SEQ ID NO: 81 (designed binder, biotinylated (AviTag system)) MGGGGSAAAGDEAERWYDLGAAYAARGDYDRAIEYYQRALELDPNNAWAWWELGVAYAARGDYDRAIEYYQRALELDPNNAVAWRRLGIAYAARGDYDRAIEYYQRALELDPNNEVARDALEYARRARRGQAGQGGGSGLNDIFEAQKIEWHECHHHHHH

>  <Kd>
< 1 nM

$$$$
>  <binder>
affinity ligand SEQ ID NO: 80 (designed binder, biotinylated (AviTag system)) MGGGGSAAAGDEADRWAALGAAYAARGDYDRAIEYYQRALELDPNNAWAWWDLGVAYAARGDYDRAIEYYERALELDPDDAHAWFRLGWAYAARGDYDRAIEYYERALELDPEDETARDVLEGARRARQGQAGQGGGSGLNDIFEAQKIEWHECHHHHHH

>  <Kd>
< 1 nM

$$$$
>  <binder>
affinity ligand SEQ ID NO: 86 (designed binder, biotinylated (AviTag system)) MGGGGSAAAGDEAQRWENQGAAYAARGDYDRAIECYESALELDPNNAWAWWELGVAYAARGDYDRAIEYYERALELDPDDAIAWSRLGHAYAARGDYDRAIEYYERALELDPEDETARYLLEHARRARQGQAGQGGGSGLNDIFEAQKIEWHECHHHHHH

>  <Kd>
< 1 nM

$$$$
>  <binder>
affinity ligand SEQ ID NO: 90 (designed binder, biotinylated (AviTag system)) MGGGGSAAAGDEAQCWENQGAAYAARGDYDRAIEYYERALELDPNNAWAWWELGVAYAARGDYDRAIEYYERALELDPDDATTWSRLGHAYAARGDYDRAIEYYVRALELDPEDETARYLLEHARRARQGQAGQGGGSGLNDIFEAQKIEWHECHHHHHH

>  <Kd>
< 1 nM

$$$$
>  <binder>
affinity ligand SEQ ID NO: 94 (designed binder, biotinylated (AviTag system)) MGGGGSAAAGDEAVRWEIQGAAYAARGDYDRAIEYYERALELDPNNAWAWWELGVAYAARGDYDRAIEYYERALELDPDDAHVWFRLGWAYAVRGDYDRAIEYYERALELDPEDELARRILEDARRARQGQAGQGGGSGLNDIFEAQKIEWHECHHHHHH

>  <Kd>
< 1 nM

$$$$

Give Kd for the following binder: affinity ligand SEQ ID NO: 89 (designed binder, biotinylated (AviTag system)) MGGGGSAAAGDEAQHWENQGAAYAARGDYDRAIEYYGRALELDPNNAWAWWELGVAYAARGDYDRAIEYYERALELDPDDATTWSRLGHAYAARGDYDRAIEYYERALELDPEDETARYLLEHARRARQGQAGQGGGSGLNDIFEAQKIEWHECHHHHHH
< 1 nM

Consider the binder affinity ligand SEQ ID NO: 82 (designed binder, biotinylated (AviTag system)) MGGGGSAAAGDEAGRWYDLGAAYAARGDYDRAIEYYQRALELDPNNAWAWWELGVAYAARGDYDRAIEYYQRALELDPNNAVAWARLGIAYAARGDYDRAIEYYQRALELDPNNEVARDALEYARRARRGQAGQGGGSGLNDIFEAQKIEWHECHHHHHH and give its recorded Kd.
< 1 nM

This collection of values is drawn from patent US20250059258A1.
